Every entry's value here was drawn from patent EP4818157A1.

IC50 values by entry
biological target: human TSHR (Homo sapiens); test: Measurement of antagonist activity using TSH-induced cAMP production in human TSHR-stably expressing CHO cells; details: human TSH final concentration 50 ng/mL
Sequence (P16473 21-764): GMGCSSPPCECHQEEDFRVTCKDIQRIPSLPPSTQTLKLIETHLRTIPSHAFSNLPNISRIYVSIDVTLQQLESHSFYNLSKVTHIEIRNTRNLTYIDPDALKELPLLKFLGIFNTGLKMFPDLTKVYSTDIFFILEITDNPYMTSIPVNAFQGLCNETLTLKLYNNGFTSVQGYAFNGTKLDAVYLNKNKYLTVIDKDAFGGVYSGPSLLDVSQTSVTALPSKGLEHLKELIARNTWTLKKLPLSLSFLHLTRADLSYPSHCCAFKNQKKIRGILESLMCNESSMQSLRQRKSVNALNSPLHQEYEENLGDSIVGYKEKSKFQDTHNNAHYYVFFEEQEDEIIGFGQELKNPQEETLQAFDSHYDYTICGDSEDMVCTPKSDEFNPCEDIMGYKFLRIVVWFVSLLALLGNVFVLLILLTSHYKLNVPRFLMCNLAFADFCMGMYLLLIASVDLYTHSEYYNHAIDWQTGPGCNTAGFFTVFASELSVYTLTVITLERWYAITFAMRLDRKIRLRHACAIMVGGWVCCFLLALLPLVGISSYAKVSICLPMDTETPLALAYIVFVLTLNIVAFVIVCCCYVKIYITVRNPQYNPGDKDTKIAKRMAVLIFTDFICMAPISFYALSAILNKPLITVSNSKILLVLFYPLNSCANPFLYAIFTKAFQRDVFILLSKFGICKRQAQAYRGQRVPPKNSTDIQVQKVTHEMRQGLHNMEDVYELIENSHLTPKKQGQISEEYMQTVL
QUANTITY_MEASURED: IC50

INSERT INTO measurements (compound, target, quantity_measured, reported) VALUES
  ('NC(=O)N[C@@H]1Cc2ccc(C(F)F)cc2N(Cc2cc(OC(F)(F)F)ccc2F)C1=O', 'human TSHR (Homo sapiens)', 'IC50', '< 3 µM'),
  ('COCc1ccc(NC(N)=O)c(=O)n1Cc1cc(C(F)(F)F)cc(Cl)c1F', 'human TSHR (Homo sapiens)', 'IC50', '< 3 µM'),
  ('N#Cc1cccc(CN2C(=O)[C@H](NC(N)=O)Cc3ccccc32)c1', 'human TSHR (Homo sapiens)', 'IC50', '> 30 µM'),
  ('CC(C)(C)NC(=O)Nc1ccc2c(c1)nc(NC(N)=O)c(=O)n2Cc1cc(C(F)(F)F)ccc1F', 'human TSHR (Homo sapiens)', 'IC50', '< 3 µM'),
  ('NC(=O)N[C@@H]1Cc2ccc(C(F)F)cc2N(Cc2cc(C(F)(F)F)ccc2F)C1=O', 'human TSHR (Homo sapiens)', 'IC50', '< 3 µM'),
  ('CC(=O)NC[C@@H]1CC[C@@H](NC(N)=O)C(=O)N1Cc1cc(C(F)(F)F)ccc1F', 'human TSHR (Homo sapiens)', 'IC50', '> 30 µM'),
  ('C[C@@H]1CC[C@@H](NC(N)=O)C(=O)N1Cc1cccc(Oc2ccccc2)c1 (relative stereo)', 'human TSHR (Homo sapiens)', 'IC50', '3 to 30 µM'),
  ('C[C@@H]1CC[C@@H](NC(N)=O)C(=O)N1Cc1cc(C#Cc2ccccc2)ccc1F (relative stereo)', 'human TSHR (Homo sapiens)', 'IC50', '< 3 µM'),
  ('Cc1ccc(NC(=O)C(F)(F)F)c(=O)n1Cc1cc(C(F)(F)F)cc(Cl)c1F', 'human TSHR (Homo sapiens)', 'IC50', '3 to 30 µM'),
  ('Cc1ncc(NC(N)=O)c(=O)n1Cc1cc(C(F)(F)F)cc(Cl)c1F', 'human TSHR (Homo sapiens)', 'IC50', '< 3 µM'),
  ('NC(=O)N[C@@H]1Cc2ccccc2N(Cc2cccc3c2OC(F)(F)O3)C1=O', 'human TSHR (Homo sapiens)', 'IC50', '< 3 µM'),
  ('CO[C@@H](C)C(=O)N[C@@H]1CC[C@@H](C(F)(F)F)N(Cc2cc(C(F)(F)F)ccc2F)C1=O', 'human TSHR (Homo sapiens)', 'IC50', '> 30 µM'),
  ('NC(=O)Nc1ccc(CO)n(Cc2cc(C(F)(F)F)cc(Cl)c2F)c1=O', 'human TSHR (Homo sapiens)', 'IC50', '< 3 µM'),
  ('NC(=O)N[C@@H]1Cc2ccc(C(F)F)cc2N(Cc2cc(C(O)(C(F)(F)F)C(F)(F)F)ccc2F)C1=O', 'human TSHR (Homo sapiens)', 'IC50', '< 3 µM'),
  ('NC(=O)N[C@@H]1C[C@@H]2CCCC[C@H]2N(Cc2cccc(C(F)(F)F)c2)C1=O (relative stereo)', 'human TSHR (Homo sapiens)', 'IC50', '> 30 µM'),
  ('CC(c1cc(C(F)(F)F)ccc1F)N1C(=O)[C@H](NC(N)=O)CC[C@H]1C(F)(F)F (some centres unmarked)', 'human TSHR (Homo sapiens)', 'IC50', '> 30 µM'),
  ('NC(=O)N[C@@H]1Cc2ccc(C(F)F)cc2N(Cc2cc(C(F)(F)F)ccc2CO)C1=O', 'human TSHR (Homo sapiens)', 'IC50', '3 to 30 µM'),
  ('C[C@@H]1CC[C@@H](NC(N)=O)C(=O)N1Cc1cc(Cc2ccccc2)ccc1F (relative stereo)', 'human TSHR (Homo sapiens)', 'IC50', '< 3 µM'),
  ('NC(=O)N[C@@H]1Cc2ccc(CO)cc2N(Cc2cc(C(F)F)ccc2F)C1=O', 'human TSHR (Homo sapiens)', 'IC50', '< 3 µM'),
  ('NC(=O)N[C@@H]1CC[C@@H](C(F)F)N(Cc2cc(C(F)(F)F)ccc2F)C1=O', 'human TSHR (Homo sapiens)', 'IC50', '< 3 µM');
